Literature-derived IC50 for DGKζ (Homo sapiens) follows.

Cc1ccc(N(CC2CCOC2)[C@H]2CC[C@@H](N(C)c3cc(=O)n(C)c4ccc(C#N)nc34)CC2)cc1OC(F)F (some centres unmarked)
100 to 1000 nM
CCC1CN(C(c2ccc(F)cc2)c2nc(C3CC3)no2)C(CC)CN1c1nc(=O)n(C)c2ccc(C#N)nc12 (single isomer, unassigned)
33 nM

IN: Requested read-out: IC50. Entry: `Cc1nc(F)ccc1N(CC1CCC1)[C@H]1CC[C@H](N(C)c2c(C#N)c(=O)n(C)c3ccc(Cl)nc23)CC1`
OUT: ≥ 1000 nM

IN: Requested read-out: IC50. Entry: `Cn1c(=O)c([N+](=O)[O-])c(N2CCN(Cc3cccc(F)c3)CC2)c2cc(F)ccc21`
OUT: 41000 nM

IN: Requested read-out: IC50. Entry: `Cn1c(=O)cc(N(C)[C@H]2CC[C@H](N(c3ccc(F)cc3O)C3CC3)CC2)c2nc(C#N)ccc21`
OUT: ≥ 1000 nM

* * *

Literature-derived pIC50 for DGKζ (Homo sapiens, UniProt Q13574) follows.
pIC50: −log10 of the molar value.

IN: Provide value of pIC50 for this record tested with DGKζ (Homo sapiens, UniProt Q13574): C[C@@H]1CN(c2c(C#N)c(=O)n(C)c3ccccc23)[C@@H](C)CN1C(c1ccc(F)cc1)c1ccc(F)cc1 (stereo in doubt)
OUT: < 4.57

IN: Provide value of pIC50 for this record tested with DGKζ (Homo sapiens, UniProt Q13574): CC(C)N(C)C(=O)CC(c1ccc(F)cc1)N1C[C@H](C)N(c2cc(=O)n(C)c3ccc(C#N)nc23)C[C@H]1C (stereo partly drawn)
OUT: 6.41

IN: Provide value of pIC50 for this record tested with DGKζ (Homo sapiens, UniProt Q13574): `COc1cc(F)ccc1N(C1CCC1)[C@H]1CC[C@@H](N(C)c2c(C#N)c(=O)n(C)c3ccc(Cl)nc23)CC1`
OUT: ≤ 6.00
